# assay_procedure: CREB reporter modulators without forskolin, primary screen, cell-based, PC12, CRE-LacZ reporter, unstimulated (AID 1145)
# settings: no forskolin, luminescence, 4.5 h, called active from +8 up or from −8 down
Activity calls are given as the source filed them.
Classes used: active, inactive

molecule	category
CCCNC(=O)[C@@H]1c2ccccc2C(=O)N(C(C)C)[C@H]1c1ccc(CO)cc1	inactive
CN(C)C(=O)[C@@]1(CCS(=O)(=O)c2ccccc2)N=C(c2ccc(OCCCO)cc2)O[C@H]1c1ccccc1	inactive
C[N+](C)(C)CCCCCCNC(=O)[C@H]1C[C@H]2C(=O)NCC(=O)N2[C@H]1c1ccc(O)cc1	inactive
Cc1cc(C)c(C(O)C2C=CC3C(=O)NC(=O)C3N2Nc2ccc(Cl)cc2Cl)c(C)c1 (stereo unspecified)	inactive
CN(C)CCCNC(=O)[C@@]1(c2ccc([N+](=O)[O-])cc2)CC(=O)N(CC23CC4CC(CC(C4)C2)C3)[C@@H]1c1ccc(CO)cc1I	inactive
COC(=O)c1c2oc(c1C(=O)OC)C(=O)N(C)Cc1cn(nn1)C[C@H](Cc1ccccc1)NC(=O)N[C@H](CO)CC2	inactive
CCCC[C@@H](O)C1=C(COc2ccccc2)C[C@H]2C(=O)N(C)C(=O)[C@H]2[C@H]1CO	inactive
CC(C)Cc1ccc(CN2CC[C@@H](NC(=O)Nc3ccccc3)C2)cc1	inactive
CCCNC(=O)[C@@]1(c2ccc([N+](=O)[O-])cc2)CC(=O)N(C2CCCCC2)[C@@H]1c1ccc(CO)cc1	inactive
O=C(NCC(F)(F)F)[C@@H]1c2ccccc2C(=O)N(Cc2ccc(OC(F)(F)F)cc2)[C@H]1c1ccc(CO)cc1	inactive
CC(C)(C)N1CC=CC23O[C@@H]4C=CCCOC(=O)C4[C@H]2C(=O)N(CCO)[C@@H]3C1=O (stereo partly specified)	inactive
[N-]=[N+]=Nc1ccccc1C[C@]1(C(=O)N2CCOCC2)N=C(c2ccc(OCCCO)cc2)O[C@H]1c1ccccc1	inactive
O=C1OCCC=C[C@H]2OC34C=CCN(Cn5nnc6ccccc65)C(=O)[C@H]3N(CCCCCCO)C(=O)[C@@H]4C12 (stereo partly specified)	inactive
COCCOC(=O)N1C(=O)[C@@]2(c3cc(C#CC4=CCCCC4)ccc31)[C@H](c1ccccc1OCCO)N1[C@H](c3ccccc3)[C@H](c3ccccc3)OC(=O)[C@H]1[C@@H]2C(=O)N1CCCCCCC1	inactive
O=C1C[C@@](C(=O)NCCN2CCOCC2)(c2ccc([N+](=O)[O-])cc2)[C@@H](c2ccc(CO)cc2I)N1C1CCCCC1	inactive
Cc1ccc(S[C@]2(C(=O)NCC(F)(F)F)CC(=O)N(Cc3ccccc3C(F)(F)F)[C@@H]2c2ccc(CO)cc2I)cc1	inactive
CCCCC(=C=CC[C@@H](O)c1ccccc1OCCO)C[C@@H](O)COCc1ccccc1	active
C[C@]1(C(=O)NC2CC2)c2ccccc2C(=O)N(Cc2ccccc2)[C@H]1c1ccc(CO)cc1	inactive
C=CC[C@]1(C(=O)O)COC(c2ccc(OCCCO)cc2)=N1	inactive
COC(=O)c1cn(C[C@@H](Cc2ccccc2)NC(=O)N[C@H](CO)CCc2oc(C(C)=O)c(C(=O)OC)c2C(=O)OC)nn1	inactive
CCOC(=O)C[C@H]1[C@H](OC(=O)Cc2ccc3c(c2)OCO3)[C@@H](NC(=O)Cc2ccc(OC)cc2)c2cc(OCCCO)ccc2N1C(=O)c1ccc2ccccc2n1	active

----------
# Test system: Plasmodium falciparum Sir2 (PF13_0152, Sir2A)
# assay_procedure: pfSir2 binders on small-molecule microarrays, primary screen, biochemical, small-molecule microarray, 635 nm fluorescence (AID 1098);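 further: score merges spot fluorescence intensity with its signal-to-noise ratio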
# settings: small-molecule microarray binding, fluorescence 635 nm; higher = more signal
Each record here notes measured composite z-score.

molecule	composite z-score
CC(C)(C)N1CC=CC23O[C@@H]4C=CCOC(=O)[C@@H]4[C@H]2C(=O)N(CCCCCCO)[C@@H]3C1=O (stereo not given in full)	1.09
CN1C(=O)C2C=CC(C(O)C#Cc3ccccc3)N(Nc3ccccc3)C2C1=O (stereo not given)	1.58
O=C(CS)NCCCCCNC(=O)[C@@H]1C[C@@H]2C(=O)N3CCC[C@H]3C(=O)N2[C@@H]1c1cccc(OCCO)c1	1.47
CN1C(=O)C2C=CC(C(O)c3ccccn3)N(N(c3ccccc3)c3ccccc3)C2C1=O (stereo not given)	1.44
COCCOC(=O)N1C(=O)[C@@]2(c3cc(C#CCCO)ccc31)[C@H](c1ccccc1OCCO)N1[C@H](c3ccccc3)[C@H](c3ccccc3)OC(=O)[C@H]1[C@@H]2C(=O)Nc1nc2ccccc2s1	1.5

----------
# assay_procedure: small-molecule microarray binders of probe aCHRDL2, primary screen, biochemical, biotinylated probe, 635/667 nm fluorescence (AID 1100)
# settings: higher = more signal
Each record here notes measured composite z-score.

molecule	composite z-score
[N-]=[N+]=Nc1ccccc1[C@H]1OC(c2ccc(OCCCO)cc2)=N[C@@]1(Cc1ccccc1)C(=O)N1CCCCC1	1.13
COCCOC(=O)N1C(=O)[C@@]2(c3cc(C#CCCO)ccc31)[C@H](c1ccccc1OCCO)N1[C@H](c3ccccc3)[C@H](c3ccccc3)OC(=O)[C@H]1[C@@H]2C(=O)Nc1nc2ccccc2s1	0.856
C=CCN1C(=O)[C@@]2(O[C@@H](CCn3cc([C@H](O)c4ccccc4)nn3)[C@H]([Si](C)(C)c3ccc(OC)cc3)[C@H]2C)c2cc(N3CCC3=O)ccc21	0.257
CC(C)C[C@@H]1NC(=O)[C@@H]2C[C@H](C(=O)NCCCCN(C)C)[C@H](c3cccc(OCCO)c3)N2C1=O	0.0176
O=C(CS)NCCCCCCNC(=O)[C@H]1C[C@H]2C(=O)N[C@@H](Cc3ccccc3)C(=O)N2[C@H]1c1ccc(O)cc1	-0.0488
COc1ccc([Si](C)(C)[C@H]2[C@H](CC(=O)N(CCO)Cc3ccccc3)O[C@@]3(C(=O)N(Cc4cccc(N5CCOC5=O)c4)c4ccccc43)[C@@H]2C)cc1	0.0284
NCCCCCNC(=O)[C@@H]1C[C@@H]2C(=O)NCC(=O)N2[C@@H]1c1cccc(OCCO)c1	0.0759
C=C(COC)/C(=C/C[C@H](OC(=O)c1ccncc1)c1ccccc1OCCO)c1cnc2ccccc2c1	-0.627
COCCCNC(=O)[C@]1(CCS(=O)(=O)c2ccccc2)N=C(c2ccc(OCCCO)cc2)O[C@@H]1c1ccccc1N=[N+]=[N-]	0.698
[N-]=[N+]=NCc1ccccc1C[C@]1(C(N)=O)N=C(c2ccc(OCCCO)cc2)O[C@H]1c1ccccc1	0.827
OCC1CC(c2ccccc2)=NO1 (stereo unspecified)	-0.354

----------
# System: Fibrinogen (Alexa647-labelled)
# assay_procedure: fibrinogen binders on compound microarrays, profiling panel, artefact control for SMM control-protein annotation, biochemical, small-molecule microarray, 635/667 nm fluorescence (AID 1131);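 further: z-score merges 667 nm fluorescence with per-spot signal-to-noise over triplicate slides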
# settings: fibrinogen-A647 binding fluorescence, higher = more signal
composite z-score of 0.7 or higher: 1.0. Under 0.7: 0.0.

compound	category
CC(C)(C)OC(=O)CC[C@]1(C(=O)NCC(O)CO)N=C(c2ccc(OCCCO)cc2)O[C@H]1c1ccccc1 (some centres not stated)	0.0
CCCC[C@@H]1C[C@H]1[C@@H](NC(=O)Cc1ccccc1)c1ccc(-c2ccccc2)cc1	0.0
C=CC[C@]1(C(=O)NCCN2CCOCC2)N=C(c2ccc(OCCCO)cc2)O[C@H]1c1ccccc1CN=[N+]=[N-]	0.0
COC(=O)[C@@]1(Cc2ccccc2)[C@H]2c3cc(C(=O)N(C)C)n(CCN4CNCC4=O)c3C[C@H]2CN1C(=O)c1ccccc1	0.0
CN(C)C(=O)[C@@]1(Cc2ccccc2CN=[N+]=[N-])N=C(c2ccc(OCCCO)cc2)O[C@H]1c1ccccc1CN=[N+]=[N-]	1.0
O=C1NC(=O)C2C1C=CC(C(O)c1cccc3ccccc13)N2Nc1ccc(Cl)cc1Cl (configuration not stated)	1.0
CC(C)C[C@@H]1NC(=O)[C@@H]2C[C@H](C(=O)NCCCCCN)[C@H](c3ccc(O)cc3)N2C1=O	1.0
COc1ccccc1CN1C(=O)c2ccccc2[C@@]2(Cc3ccccc3N(CC(F)(F)F)C2=O)[C@@H]1c1ccc(CO)cc1	0.0
C=C(C)c1cc2c(c(CCCCCC)n1)[Si](C(C)C)(C(C)C)OC2	0.0
COc1ccccc1CN1C(=O)c2ccccc2[C@](Cc2ccccc2I)(C(=O)NCC(F)(F)F)[C@@H]1c1ccc(CO)cc1	1.0
C=C(COC)C(=O)CC[C@@H](OC(=O)c1cccnc1)c1ccc(OCCO)cc1	0.0
CCOC(=O)C[C@H]1[C@H](OC(=O)c2cc3ccccc3oc2=O)[C@@H](NC(=O)Cc2ccc(OC)cc2)c2cc(OCCCO)ccc2N1C(=O)c1ccc2ccccc2n1	0.0
[N-]=[N+]=Nc1ccccc1[C@@H]1OC(c2ccc(OCCCO)cc2)=N[C@]1(Cc1ccccc1)C(=O)NCC(O)CO (some centres not stated)	1.0
Cn1cccc1C(O)C1C=CC2C(=O)NC(=O)C2N1Nc1ccc(Cl)cc1Cl (configuration not stated)	1.0
C[C@@H]1ON(c2ccc(C(=O)OC(C)(C)C)cc2)[C@H](c2ccc(O)cc2)[C@H]1C(=O)N1C(=O)OC[C@H]1Cc1ccccc1	0.0
CC(C)N1CC=CC23O[C@@H]4C=CCOC(=O)[C@@H]4[C@H]2C(=O)N(CCCO)[C@@H]3C1=O (some centres not stated)	0.0
C=C(CCCC)/C(=C/C[C@@H](OC(=O)c1ccncc1)c1ccccc1OCCO)c1cnc2ccccc2c1	1.0
O=C1NC(=O)C2C1C=CC(C(O)c1c(F)cccc1Cl)N2Nc1ccc(Cl)cc1Cl (configuration not stated)	0.0
O=C1NC(=O)C2C1C=CC(C(O)c1ccco1)N2Nc1ccccn1 (configuration not stated)	0.0
C=CCOC(=O)[C@H]1[C@@H]2C(=O)O[C@@H](c3ccccc3)[C@@H](c3ccccc3)N2[C@@H](c2ccc(OCCOC(=O)[C@@H]3C[C@@H]4C(=O)N[C@@H](CCCCN(C)C)C(=O)N4[C@@H]3c3ccc(O)cc3)cc2)[C@]12C(=O)Nc1ccccc12	0.0
C=C[C@@H](OC)[C@H](OC(=O)Nc1ccc(SC)cc1)c1ccc(O)c(F)c1	1.0
